target: T1, soluble DR 2a (DRB5*0101) molecules isolated from L cells transfectant L416.3 (human), P01903
T1 chain 1: not shown
T1 chain 2: not shown
pIC50: −log10 of the molar value.
METRIC: pIC50

Entry under review: DPNANPNVDPNANPNV (modifications not checked) . Reported pIC50? < 4.00
